Origin of values: paper PMC3166964

Assay Target: caspase-3(D9A,D28A) (Homo sapiens, UniProt P42574, D28A/D9A)
Sequence (P42574 1-175 D9A/D28A limits assumed): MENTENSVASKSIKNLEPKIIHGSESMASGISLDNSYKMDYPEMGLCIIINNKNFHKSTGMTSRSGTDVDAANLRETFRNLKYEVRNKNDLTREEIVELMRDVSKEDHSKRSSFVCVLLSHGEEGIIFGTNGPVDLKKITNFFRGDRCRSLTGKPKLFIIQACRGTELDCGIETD
Sequence (P42574 176-277 limits assumed): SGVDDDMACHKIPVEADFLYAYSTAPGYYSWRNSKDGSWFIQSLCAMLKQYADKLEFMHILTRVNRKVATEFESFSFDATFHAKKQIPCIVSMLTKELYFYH
Test Method Notes: isothermal titration calorimetry
pKd: −log10 of the molar value.
Quantity Kind: pKd

structure_string=CCN(CC)S(=O)(=O)c1ccc(-c2ccc(S(=O)(=O)N(CC)CC)s2)s1 assay_target="caspase-3(D9A,D28A) (Homo sapiens, UniProt P42574, D28A/D9A)" result=~5.40
